Target: APOL1
Details: ASO, A431, 0.04 µM
After the bases stand the sugars from the 5' end (letter, count) and the backbone: PS all phosphorothioate, else s phosphorothioate and o phosphodiester by linkage. Methylation of C is not given here. e = 2'-O-(2-methoxyethyl) (MOE); k = constrained ethyl (cEt); d = 2'-deoxy (DNA)
observation.type: target mRNA inhibition (%)
Please respond with the number in % and leave the unit unwritten.

Give the measured target mRNA inhibition of TGTTATATTTGATCCT (sugars kkdddddkekeddddd, PS) .
50

Give the measured target mRNA inhibition of GTATTTCTTGATGTGG (sugars kekddddeekkddddd, PS) .
70

Give the measured target mRNA inhibition of GTATTTCTTGATGTGG (sugars kkdddddkekeddddd, PS) .
64

Give the measured target mRNA inhibition of CAGTTTTGTAAGTGCA (sugars kkddddkdkdkddddd, PS) .
41
